Test system: intracellular proteome of ENR+CD and ENR organoids
Assay: LC-MS/MS TMT proteomics of ENR+CD versus ENR organoids
Format: cell-based, C57BL/6 mice
Details: up = enriched in ENR+CD, down = enriched in ENR; FDR<0.05 and log fold change cut-off
Text: Because PCs are highly secretory, protein-rich cells, Applicants sought to assess the total intracellular proteome between conditions through liquid chromatography mass spectrometry (LC-MS/MS)-based proteomics. Applicants quantified relative protein abundance across eight samples using isobaric mass tag labeling from four ENR and four ENR+CD samples (M1-1 through M2-2, first digit denotes biological donor, second digit denotes technical replicate) (FIG. 3A). […]
Result Type: change

Q8K354 (protein, UniProt Q8K354 1-277, looked up, full-length) MSSCSRVALVTGANKGIGFAITRDLCRKFSGDVVLTARDEARGRAAVQQLQAEGLSPRFHQLDIDDPQSIRALRDFLRKEYGGLNVLVNNAGIAFRMDDPTPFDIQAEVTLKTNFFATRNVCTELLPIMKPHGRVVNISSLQGLKALENCREDLQEKFRCDTLTEVDLVDLMKKFVEDTKNEVHEREGWPDSAYGVSKLGVTVLTRILARQLDEKRKADRILLNACCPGWVKTDMARDQGSRTVEEGAETPVYLALLPPDATEPHGQLVRDKVVQTW; down

Measured values drawn from patent US11994512B2 for this set.
